Origin of values: patent US9422235B2

Experimental system: human CB2 receptor (Homo sapiens (Human), UniProt P34972)
Sequence (P34972 whole entry): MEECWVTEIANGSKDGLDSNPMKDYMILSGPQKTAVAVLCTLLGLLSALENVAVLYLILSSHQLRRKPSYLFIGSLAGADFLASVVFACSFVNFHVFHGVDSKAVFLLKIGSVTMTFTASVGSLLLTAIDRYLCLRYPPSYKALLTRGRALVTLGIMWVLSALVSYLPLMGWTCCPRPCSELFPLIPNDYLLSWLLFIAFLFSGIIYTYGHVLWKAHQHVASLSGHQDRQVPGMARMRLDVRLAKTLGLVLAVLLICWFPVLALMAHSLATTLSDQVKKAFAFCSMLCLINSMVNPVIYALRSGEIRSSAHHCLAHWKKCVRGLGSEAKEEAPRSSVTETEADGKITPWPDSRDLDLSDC
Assay method text: [35S]GTPγS-binding assay, functional activity at the human CB2 receptor
Format: biochemical
Description: Functional activity of compounds of the invention toward the cannabinoid receptors was determined by stimulation of [^35S]-GTPγS binding using membranes from HEK-293 cells expressing the hCB1 receptor and membranes expressing the hCB2 receptor derived from either Sf9 (PerkinElmer) or from HEK-293 cells. […] CP55940 is a full agonist of the human and rat CB2 receptors. […] Full or partial agonism at the receptor was determined relative to the Emax value of CP55940.
Parameter measured: Emax (%)

# Compound, Parameter measured, Meas value
rows = [
    ("COc1ccc(Nc2ccc(S(=O)(=O)NCC3CC3)c(C(F)(F)F)c2)c(OC)c1", "Emax", 5),
    ("O=S(=O)(NCC1CCOCC1)c1ccc(Nc2ccc(Cl)cc2Cl)cc1C(F)(F)F", "Emax", 19),
    ("CC(C)(NS(=O)(=O)c1ccc(NC2CC3CCC2C3)cc1C(F)(F)F)C1CC1 (stereo not shown)", "Emax", 30),
    ("O=S(=O)(NCC1CC1)c1ccc(Nc2ccc(Cl)cc2Cl)cc1C(F)(F)F", "Emax", 30),
    ("O=S(=O)(NCC1CC1)c1ccc(NN2CCCCCC2)cc1C(F)(F)F", "Emax", 34),
    ("O=S(=O)(NCC1CC1)c1ccc(NC2CCCCCC2)cc1C(F)(F)F", "Emax", 21),
]
